Values were extracted from paper PMC11631053.

Target: TAS2R60 (Homo sapiens, UniProt P59551)
Sequence (P59551 whole entry): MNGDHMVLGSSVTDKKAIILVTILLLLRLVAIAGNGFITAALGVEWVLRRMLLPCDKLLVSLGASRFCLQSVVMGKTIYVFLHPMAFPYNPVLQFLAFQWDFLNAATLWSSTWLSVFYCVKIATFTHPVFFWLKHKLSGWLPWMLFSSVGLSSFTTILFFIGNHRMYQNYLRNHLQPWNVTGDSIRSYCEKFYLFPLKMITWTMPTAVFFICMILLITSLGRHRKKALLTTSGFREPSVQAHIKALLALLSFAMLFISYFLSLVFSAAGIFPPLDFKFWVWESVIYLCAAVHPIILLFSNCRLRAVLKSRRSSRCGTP
Assay: Calcium mobilization assay, HEK293T-Gα16gust44 cells expressing TAS2R60
Conditions: maximal concentration tested: sucralose 100 mM, neotame 30 µM, Ace-K 300 mM, RebA 4 mM, RebM 4 mM, mogroside V 5 mM, erythritol 200 mM, D-allulose 500 mM, thaumatin 100 mM

{"smilesCode": "OC[C@@H](O)[C@@H](O)CO", "targetDesc": "TAS2R60 (Homo sapiens, UniProt P59551)", "Response of TAS2R60": "−"}
{"smilesCode": "COC(=O)[C@H](Cc1ccccc1)NC(=O)[C@H](CC(=O)O)NCCC(C)(C)C", "targetDesc": "TAS2R60 (Homo sapiens, UniProt P59551)", "Response of TAS2R60": "−"}
{"smilesCode": "OC[C@H]1O[C@H](O[C@]2(CCl)O[C@H](CCl)[C@@H](O)[C@@H]2O)[C@H](O)[C@@H](O)[C@H]1Cl", "targetDesc": "TAS2R60 (Homo sapiens, UniProt P59551)", "Response of TAS2R60": "−"}

----------
Target: TAS2R20 (Homo sapiens, UniProt P59543)
Sequence (P59543 whole entry): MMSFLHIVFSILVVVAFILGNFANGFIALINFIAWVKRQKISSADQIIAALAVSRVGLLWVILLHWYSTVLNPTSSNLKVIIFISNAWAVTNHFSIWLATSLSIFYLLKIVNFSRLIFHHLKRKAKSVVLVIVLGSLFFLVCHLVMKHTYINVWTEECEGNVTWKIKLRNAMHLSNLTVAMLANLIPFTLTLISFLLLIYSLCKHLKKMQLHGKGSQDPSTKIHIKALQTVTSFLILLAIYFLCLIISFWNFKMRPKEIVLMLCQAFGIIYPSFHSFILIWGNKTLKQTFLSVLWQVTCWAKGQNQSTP
Test: Calcium mobilization assay, HEK293T-Gα16gust44 cells expressing TAS2R20
Conditions: maximal concentration tested: sucralose 100 mM, neotame 30 µM, Ace-K 300 mM, RebA 4 mM, RebM 4 mM, mogroside V 5 mM, erythritol 200 mM, D-allulose 500 mM, thaumatin 100 mM
measuredProperty: Response of TAS2R20

{"molecule": "COC(=O)[C@H](Cc1ccccc1)NC(=O)[C@H](CC(=O)O)NCCC(C)(C)C", "value": "−"}
{"molecule": "C[C@H](CC[C@@H](O[C@@H]1O[C@H](CO[C@@H]2O[C@H](CO)[C@@H](O)[C@H](O)[C@H]2O)[C@@H](O)[C@H](O)[C@H]1O[C@@H]1O[C@H](CO)[C@@H](O)[C@H](O)[C@H]1O)C(C)(C)O)[C@H]1CC[C@@]2(C)[C@@H]3CC=C4[C@@H](CC[C@H](O[C@@H]5O[C@H](CO[C@@H]6O[C@H](CO)[C@@H](O)[C@H](O)[C@H]6O)[C@@H](O)[C@H](O)[C@H]5O)C4(C)C)[C@]3(C)[C@H](O)C[C@]12C [Mogroside V, mogroside V]", "value": "−"}

----------
Biological target: TAS2R19 (Homo sapiens)
Sequence (P59542 whole entry): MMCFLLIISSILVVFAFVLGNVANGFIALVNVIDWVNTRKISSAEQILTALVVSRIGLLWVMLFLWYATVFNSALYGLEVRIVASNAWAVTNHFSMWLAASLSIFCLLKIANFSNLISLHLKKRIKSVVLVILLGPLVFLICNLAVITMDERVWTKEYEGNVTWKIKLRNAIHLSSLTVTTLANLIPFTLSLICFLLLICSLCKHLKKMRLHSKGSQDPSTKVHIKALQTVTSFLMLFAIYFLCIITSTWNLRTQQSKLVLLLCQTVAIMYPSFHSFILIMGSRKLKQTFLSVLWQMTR
Test: Calcium mobilization assay, HEK293T-Gα16gust44 cells expressing TAS2R19
Conditions: maximal concentration tested: sucralose 100 mM, neotame 30 µM, Ace-K 300 mM, RebA 4 mM, RebM 4 mM, mogroside V 5 mM, erythritol 200 mM, D-allulose 500 mM, thaumatin 100 mM

{"molecule": "C=C1C[C@@]23CC[C@H]4[C@@](C)(CCC[C@@]4(C)C(=O)O[C@@H]4O[C@H](CO)[C@@H](O)[C@H](O[C@@H]5O[C@H](CO)[C@@H](O)[C@H](O)[C@H]5O)[C@H]4O[C@@H]4O[C@H](CO)[C@@H](O)[C@H](O)[C@H]4O)[C@@H]2CC[C@]1(O[C@@H]1O[C@H](CO)[C@@H](O)[C@H](O[C@@H]2O[C@H](CO)[C@@H](O)[C@H](O)[C@H]2O)[C@H]1O[C@@H]1O[C@H](CO)[C@@H](O)[C@H](O)[C@H]1O)C3 [RebM, Rebaudioside M]", "Response of TAS2R19": "−"}
{"molecule": "O=C(CO)[C@H](O)[C@H](O)[C@H](O)CO [D-allulose]", "Response of TAS2R19": "+"}
{"molecule": "OC[C@H]1O[C@H](O[C@]2(CCl)O[C@H](CCl)[C@@H](O)[C@@H]2O)[C@H](O)[C@@H](O)[C@H]1Cl [Sucralose, sucralose]", "Response of TAS2R19": "−"}

----------
Target: TAS2R43 (Homo sapiens, UniProt P59537)
Sequence (P59537 whole entry): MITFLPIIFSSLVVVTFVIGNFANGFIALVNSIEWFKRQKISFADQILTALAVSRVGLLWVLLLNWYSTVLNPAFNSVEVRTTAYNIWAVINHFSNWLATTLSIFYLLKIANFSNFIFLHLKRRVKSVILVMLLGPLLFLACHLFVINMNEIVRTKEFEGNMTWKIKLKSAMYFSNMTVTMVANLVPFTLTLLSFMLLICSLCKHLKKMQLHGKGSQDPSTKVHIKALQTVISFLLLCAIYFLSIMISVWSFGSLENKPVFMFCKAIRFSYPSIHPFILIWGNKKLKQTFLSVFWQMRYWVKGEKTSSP
Assay: Calcium mobilization assay, HEK293T-Gα16gust44 cells expressing TAS2R43
Details: maximal concentration tested: sucralose 100 mM, neotame 30 µM, Ace-K 300 mM, RebA 4 mM, RebM 4 mM, mogroside V 5 mM, erythritol 200 mM, D-allulose 500 mM, thaumatin 100 mM
measuredProperty: Response of TAS2R43

{"compound": "C=C1C[C@@]23CC[C@H]4[C@@](C)(CCC[C@@]4(C)C(=O)O[C@@H]4O[C@H](CO)[C@@H](O)[C@H](O[C@@H]5O[C@H](CO)[C@@H](O)[C@H](O)[C@H]5O)[C@H]4O[C@@H]4O[C@H](CO)[C@@H](O)[C@H](O)[C@H]4O)[C@@H]2CC[C@]1(O[C@@H]1O[C@H](CO)[C@@H](O)[C@H](O[C@@H]2O[C@H](CO)[C@@H](O)[C@H](O)[C@H]2O)[C@H]1O[C@@H]1O[C@H](CO)[C@@H](O)[C@H](O)[C@H]1O)C3 [RebM, Rebaudioside M]", "value": "−"}
{"compound": "CC1=CC(=O)NS(=O)(=O)O1", "value": "§^b"}
{"compound": "COC(=O)[C@H](Cc1ccccc1)NC(=O)[C@H](CC(=O)O)NCCC(C)(C)C", "value": "−"}
{"compound": "O=C(CO)[C@H](O)[C@H](O)[C@H](O)CO", "value": "+"}
{"compound": "OC[C@@H](O)[C@@H](O)CO", "value": "−"}

Ask: Given C[C@H](CC[C@@H](O[C@@H]1O[C@H](CO[C@@H]2O[C@H](CO)[C@@H](O)[C@H](O)[C@H]2O)[C@@H](O)[C@H](O)[C@H]1O[C@@H]1O[C@H](CO)[C@@H](O)[C@H](O)[C@H]1O)C(C)(C)O)[C@H]1CC[C@@]2(C)[C@@H]3CC=C4[C@@H](CC[C@H](O[C@@H]5O[C@H](CO[C@@H]6O[C@H](CO)[C@@H](O)[C@H](O)[C@H]6O)[C@@H](O)[C@H](O)[C@H]5O)C4(C)C)[C@]3(C)[C@H](O)C[C@]12C [Mogroside V, mogroside V] , state its recorded Response of TAS2R43.
Reply: −

Ask: Would you kindly repeat that for `OC[C@H]1O[C@H](O[C@]2(CCl)O[C@H](CCl)[C@@H](O)[C@@H]2O)[C@H](O)[C@@H](O)[C@H]1Cl` ?
Reply: −

----------
Target: TAS1R2/TAS1R3 (Homo sapiens, UniProt Q7RTX0+Q8TE23)
Sequence (Q8TE23 20-839): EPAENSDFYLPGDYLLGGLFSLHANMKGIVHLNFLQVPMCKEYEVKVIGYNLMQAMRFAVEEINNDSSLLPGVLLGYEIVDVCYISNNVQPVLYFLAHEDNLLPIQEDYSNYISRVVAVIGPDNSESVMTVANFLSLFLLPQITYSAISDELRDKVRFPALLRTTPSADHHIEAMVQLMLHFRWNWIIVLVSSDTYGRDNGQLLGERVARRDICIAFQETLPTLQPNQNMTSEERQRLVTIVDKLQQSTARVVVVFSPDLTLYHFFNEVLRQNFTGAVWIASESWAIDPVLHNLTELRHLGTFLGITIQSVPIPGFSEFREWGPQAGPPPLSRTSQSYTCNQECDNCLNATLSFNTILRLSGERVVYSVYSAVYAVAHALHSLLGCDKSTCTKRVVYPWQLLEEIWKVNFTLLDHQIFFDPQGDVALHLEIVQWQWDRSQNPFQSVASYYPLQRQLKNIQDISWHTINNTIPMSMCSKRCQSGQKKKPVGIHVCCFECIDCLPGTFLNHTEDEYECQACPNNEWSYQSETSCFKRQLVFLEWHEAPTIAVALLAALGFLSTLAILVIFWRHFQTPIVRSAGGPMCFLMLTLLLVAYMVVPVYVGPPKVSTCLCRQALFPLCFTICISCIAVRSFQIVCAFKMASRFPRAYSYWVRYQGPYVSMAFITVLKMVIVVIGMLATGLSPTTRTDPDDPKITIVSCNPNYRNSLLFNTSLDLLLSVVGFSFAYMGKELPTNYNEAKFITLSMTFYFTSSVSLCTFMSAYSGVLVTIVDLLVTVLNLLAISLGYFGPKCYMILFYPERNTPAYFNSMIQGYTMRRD
Sequence (Q7RTX0 21-852): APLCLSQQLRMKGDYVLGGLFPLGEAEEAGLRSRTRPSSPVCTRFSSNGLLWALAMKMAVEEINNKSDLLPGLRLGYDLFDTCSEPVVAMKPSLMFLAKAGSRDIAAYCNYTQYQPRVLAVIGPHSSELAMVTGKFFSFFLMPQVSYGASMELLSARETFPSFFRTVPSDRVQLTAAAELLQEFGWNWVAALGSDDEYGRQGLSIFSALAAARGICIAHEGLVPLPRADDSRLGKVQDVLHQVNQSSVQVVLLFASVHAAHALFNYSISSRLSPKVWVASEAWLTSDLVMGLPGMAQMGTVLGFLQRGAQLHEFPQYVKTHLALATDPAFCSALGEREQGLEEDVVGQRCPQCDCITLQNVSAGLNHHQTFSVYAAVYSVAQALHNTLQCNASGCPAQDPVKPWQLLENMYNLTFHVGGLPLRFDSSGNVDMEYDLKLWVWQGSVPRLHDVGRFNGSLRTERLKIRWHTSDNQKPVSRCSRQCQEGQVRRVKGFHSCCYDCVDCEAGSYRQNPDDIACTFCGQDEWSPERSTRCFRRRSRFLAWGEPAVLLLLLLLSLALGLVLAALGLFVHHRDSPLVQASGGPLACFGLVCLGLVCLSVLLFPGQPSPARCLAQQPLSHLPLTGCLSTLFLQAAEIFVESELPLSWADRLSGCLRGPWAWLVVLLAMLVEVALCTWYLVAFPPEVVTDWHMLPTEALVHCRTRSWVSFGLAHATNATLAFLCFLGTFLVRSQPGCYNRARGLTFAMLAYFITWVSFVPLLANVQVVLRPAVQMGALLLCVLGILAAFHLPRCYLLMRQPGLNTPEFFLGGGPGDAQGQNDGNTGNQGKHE
Experiment: Calcium mobilization assay, HEK293T-Gα16gust44 cells expressing the sweet taste receptor
measuredProperty: EC50 (mM)

a = OC[C@@H](O)[C@@H](O)CO
b = CC1=CC(=O)NS(=O)(=O)O1
Ask: Select the item with the higher value of EC50 from the options a and b listed. Which one? Tell me its label.
Reply: a
(a: 56 mM, b: 0.41 mM)
